- System: HIV-1 (IIIB strain)
- Format: cell-based
- study.conditions: anti-HIV-1 activity, HIV-1-infected MT-4 cells
pEC50: −log10 of the molar value.
just bin them by pEC50: bottom bin: < 6; middle bin: ≥ 6 and < 7; top bin: ≥ 7

Record excerpt, results attached:
Kindly state the category for this compound: `Cc1c(Cc2c(Cl)cccc2Cl)nc(SC2CCCCC2)[nH]c1=O`
bottom bin

Kindly state the category for this compound: `O=c1cc(Cc2c(Cl)cccc2Cl)nc(SC2CCCCC2)[nH]1`
middle bin

Kindly state the category for this compound: CC1CCC(Oc2nc(Cc3ccccc3)cc(=O)[nH]2)CC1C (stereo not drawn)
bottom bin

Kindly state the category for this compound: CCC(C)Sc1nc(C(C)c2c(F)cccc2F)cc(=O)[nH]1 (stereo not drawn)
top bin

---
Kindly state the category for this compound: C=CCc1c(Cc2ccccc2)nc(SC(C)CC)[nH]c1=O (stereo not drawn)
bottom bin

Kindly state the category for this compound: `Cc1c(Cc2c(Cl)cccc2Cl)nc(SC2CCCC2)[nH]c1=O`
bottom bin

Kindly state the category for this compound: CCC(C)Sc1nc(Cc2ccc(N)cc2)cc(=O)[nH]1 (stereo not drawn)
bottom bin

Kindly state the category for this compound: CCCCc1c(Cc2ccccc2)nc(SC(C)CC)[nH]c1=O (stereo not drawn)
bottom bin

Kindly state the category for this compound: CCC(C)Sc1nc(Cc2ccccc2C(F)(F)F)cc(=O)[nH]1 (stereo not drawn)
bottom bin

Kindly state the category for this compound: CC(c1cc(=O)[nH]c(SC2CCCC2)n1)c1c(F)cccc1F (stereo not drawn)
top bin

Kindly state the category for this compound: CCC(C)Sc1nc(Cc2c(Cl)cccc2Cl)c(C)c(=O)[nH]1 (stereo not drawn)
top bin

Kindly state the category for this compound: `CC(C)Nc1nc(Cc2c(F)cccc2F)cc(=O)[nH]1`
middle bin

Kindly state the category for this compound: `CNc1nc(Cc2c(F)cccc2F)c(C)c(=O)[nH]1`
middle bin

====

- System: mock-infected MT-4 cells
- experimental.details: Cytotoxicity: viability of mock-infected cells by the MTT method
- Format: cell-based, human
The entries below are paired with their reported CC50.

Here is how some molecules turned out for CC50.
Quick one: CC50 for `O=c1cc(Cc2c(F)cccc2F)nc(NC2CCCC2)[nH]1` ?
> 200 µM

Quick one: CC50 for CC(C)Sc1nc(C(C)c2ccccc2)cc(=O)[nH]1 (stereo not drawn) ?
> 200 µM

Quick one: CC50 for CCC(C)Sc1nc(Cc2ccccc2C)c(C)c(=O)[nH]1 (stereo not drawn) ?
> 200 µM

Quick one: CC50 for CCC(C)Sc1nc(Cc2ccc(C)cc2)c(C)c(=O)[nH]1 (stereo not drawn) ?
26 µM

Quick one: CC50 for CCC(C)Sc1nc(Cc2ccc(F)cc2)cc(=O)[nH]1 (stereo not drawn) ?
> 200 µM

Quick one: CC50 for CCCCc1c(Cc2ccccc2)nc(SC(C)CC)[nH]c1=O (stereo not drawn) ?
> 200 µM

Quick one: CC50 for CC(C)Sc1nc(C(C)c2cccc3ccccc23)cc(=O)[nH]1 (stereo not drawn) ?
119 µM

Quick one: CC50 for `Cc1c(Cc2c(Cl)cccc2Cl)nc(SC2CCCCC2)[nH]c1=O` ?
> 200 µM

Quick one: CC50 for `CSc1nc(Cc2c(Cl)cccc2Cl)c(C)c(=O)[nH]1` ?
> 200 µM

Quick one: CC50 for CC(c1cc(=O)[nH]c(SC2CCCC2)n1)c1c(Cl)cccc1Cl (stereo not drawn) ?
78.3 µM

---
Quick one: CC50 for CC1CCC(C)C(Oc2nc(Cc3ccccc3)cc(=O)[nH]2)C1 (stereo not drawn) ?
143 µM

Quick one: CC50 for `CCCCSc1nc(Cc2c(F)cccc2F)c(C)c(=O)[nH]1` ?
> 200 µM

Quick one: CC50 for CCC(c1cc(=O)[nH]c(SC(C)C)n1)c1cccc2ccccc12 (stereo not drawn) ?
50 µM

====

- Tested on: HIV-1 (IIIB strain)
- Type: cell-based
- study.conditions: selectivity index (CC50/EC50)
The entries below are paired with their reported SI.

Here is how some compounds turned out for SI.
Notebook: pull reported SI for HIV-1 (IIIB strain), entry `CCCNc1nc(Cc2c(F)cccc2F)cc(=O)[nH]1`
1,818

Notebook: pull reported SI for HIV-1 (IIIB strain), entry CC(C)Sc1nc(C(C)c2cccc3ccccc23)cc(=O)[nH]1 (stereo not drawn)
108

Notebook: pull reported SI for HIV-1 (IIIB strain), entry `O=c1cc(Cc2c(Cl)cccc2Cl)nc(SC2CCCC2)[nH]1`
>500

Notebook: pull reported SI for HIV-1 (IIIB strain), entry CCC(C)Sc1nc(Cc2cc(F)cc(F)c2)cc(=O)[nH]1 (stereo not drawn)
>143

Notebook: pull reported SI for HIV-1 (IIIB strain), entry `CSc1nc(Cc2c(F)cccc2F)cc(=O)[nH]1`
247

Notebook: pull reported SI for HIV-1 (IIIB strain), entry `O=c1cc(Cc2c(F)cccc2F)nc(NC2CCCC2)[nH]1`
>2,222

---
Notebook: pull reported SI for HIV-1 (IIIB strain), entry CC(c1cc(=O)[nH]c(SC2CCCC2)n1)c1cccc2ccccc12 (stereo not drawn)
186

Notebook: pull reported SI for HIV-1 (IIIB strain), entry CCC(c1cc(=O)[nH]c(SC2CCCC2)n1)c1c(F)cccc1F (stereo not drawn)
1,333

Notebook: pull reported SI for HIV-1 (IIIB strain), entry CCC(C)Sc1nc(Cc2cccc([N+](=O)[O-])c2)cc(=O)[nH]1 (stereo not drawn)
392

Notebook: pull reported SI for HIV-1 (IIIB strain), entry CCC(C)Nc1nc(Cc2c(F)cccc2F)cc(=O)[nH]1 (stereo not drawn)
>1,540

Notebook: pull reported SI for HIV-1 (IIIB strain), entry CCC(C)Sc1nc(Cc2ccccc2C)c(C)c(=O)[nH]1 (stereo not drawn)
>118

Notebook: pull reported SI for HIV-1 (IIIB strain), entry `CC(C)CSc1nc(Cc2c(F)cccc2F)cc(=O)[nH]1`
1,300

Notebook: pull reported SI for HIV-1 (IIIB strain), entry Cc1c(Cc2ccccc2)nc(OC2CC(C)CCC2C)[nH]c1=O (stereo not drawn)
39

Notebook: pull reported SI for HIV-1 (IIIB strain), entry CCC(C)Sc1nc(Cc2ccc([N+](=O)[O-])cc2)cc(=O)[nH]1 (stereo not drawn)
101

Notebook: pull reported SI for HIV-1 (IIIB strain), entry `CC(C)CSc1nc(Cc2c(Cl)cccc2Cl)cc(=O)[nH]1`
>444

Notebook: pull reported SI for HIV-1 (IIIB strain), entry `O=c1cc(Cc2c(F)cccc2F)nc(NC2CC2)[nH]1`
>63

Notebook: pull reported SI for HIV-1 (IIIB strain), entry C=CCc1c(Cc2ccccc2)nc(SC(C)CC)[nH]c1=O (stereo not drawn)
>67

Notebook: pull reported SI for HIV-1 (IIIB strain), entry `Cc1c(Cc2c(F)cccc2F)nc(SC(C)C)[nH]c1=O`
>4,000

Notebook: pull reported SI for HIV-1 (IIIB strain), entry `CNc1nc(Cc2c(F)cccc2F)c(C)c(=O)[nH]1`
335

Notebook: pull reported SI for HIV-1 (IIIB strain), entry CCC(C)Sc1nc(Cc2cccc(Cl)c2)c(C)c(=O)[nH]1 (stereo not drawn)
>208

====

The entries below are paired with their reported EC50.
- Test system: HIV-1 (IIIB strain)
- Format: cell-based
- study.conditions: anti-HIV-1 activity, acutely infected MT-4 cells, MTT
Express the result in nM but write the number alone.

Quick one: EC50 for CN1CCN(c2nc(Cc3c(F)cccc3F)cc(=O)[nH]2)CC1 [MC 1183] ?
7100

Quick one: EC50 for CSCSc1nc(Cc2c(F)cccc2F)c(C(C)C)c(=O)[nH]1 [MC 1145] ?
100

Quick one: EC50 for CCCCNc1nc(Cc2c(F)cccc2F)c(C)c(=O)[nH]1 [MC 1185] ?
20

Quick one: EC50 for CN(C)c1nc(Cc2c(F)cccc2F)cc(=O)[nH]1 [MC 1182] ?
50

Quick one: EC50 for CCCCSc1nc(C(C)c2c(F)cccc2F)c(C)c(=O)[nH]1 (stereo not shown) [MC 1175] ?
8

Quick one: EC50 for CCCCNc1nc(C(C)c2c(F)cccc2F)c(C)c(=O)[nH]1 (stereo not shown) [MC 1187] ?
10

Quick one: EC50 for CCCN(CCC)c1nc(Cc2c(F)cccc2F)cc(=O)[nH]1 [MC 1204] ?
3800

Quick one: EC50 for CCN(CC)c1nc(Cc2c(F)cccc2F)cc(=O)[nH]1 [MC 1202] ?
260

Quick one: EC50 for Cc1c(C(C)c2c(F)cccc2F)nc(SC2CCCCC2)[nH]c1=O (stereo not shown) [MC 1174] ?
18

# ---- query compound ----
Quick one: EC50 for O=c1cc(Cc2c(F)cccc2F)nc(N2CCCC2)[nH]1 [MC 1196] ?
2100

====

- Tested on: HIV-1 (IIIB strain)
- Type: cell-based
- study.conditions: anti-HIV-1 activity, HIV-1-infected MT-4 cells
# label = Fulfilled if EC50 < 1000 nM else Not fulfilled

A record lists CCC(c1cc(=O)[nH]c(SC(C)C)n1)c1c(Cl)cccc1Cl (stereo not shown) [MC 1000] . Is its EC50 below 1000 nM?
Fulfilled

A record lists Cc1c(Cc2ccccc2)nc(OC2CC(C)CCC2C)[nH]c1=O (stereo not shown) [MC 531] . Is its EC50 below 1000 nM?
Not fulfilled

A record lists Cc1c(Cc2c(F)cccc2F)nc(NC(C)C)[nH]c1=O [MC 1118] . Is its EC50 below 1000 nM?
Fulfilled

A record lists CCC(c1cc(=O)[nH]c(SC2CCCC2)n1)c1c(F)cccc1F (stereo not shown) [MC 1006] . Is its EC50 below 1000 nM?
Fulfilled

A record lists CCC(C)Sc1nc(Cc2ccccc2F)c(C)c(=O)[nH]1 (stereo not shown) [MC 913] . Is its EC50 below 1000 nM?
Fulfilled

---
A record lists CCC(c1ccccc1)c1cc(=O)[nH]c(SC2CCCCC2)n1 (stereo not shown) [MC 903] . Is its EC50 below 1000 nM?
Not fulfilled

A record lists CCC(C)Sc1nc(Cc2ccc(OC)cc2)cc(=O)[nH]1 (stereo not shown) [MC 964] . Is its EC50 below 1000 nM?
Not fulfilled

A record lists CC(c1cc(=O)[nH]c(SC2CCCC2)n1)c1cccc2ccccc12 (stereo not shown) [MC 972] . Is its EC50 below 1000 nM?
Fulfilled

A record lists Cc1c(Cc2c(F)cccc2F)nc(SC(C)C)[nH]c1=O [MC 881] . Is its EC50 below 1000 nM?
Fulfilled
